- tgt: d-enCas12a (Acidaminococcus sp., UniProt U2UMQ6 1-1307, E174R;S542R;K548R;D908A;E993A;D1235A)
- assay_notes: Spec-seq (native PAGE EMSA with sequencing of bound and unbound); 25 mM Tris-HCl pH 7.4, 150 mM KCl, 5 mM MgCl2, 10% glycerol, 1 mM DTT, 40 ng/uL salmon sperm DNA; 400 nM Cas12a, 480 nM crRNA, 50 nM library, 37 C 1 h; native PAGE at room temperature; high values mean tight binding;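 further: relative affinity from the bound to unbound sequence frequency ratio in Spec-seq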
- condition_label: protein: recombinant
binders and their reported binding signal
Be sure to follow the number with its unit.

binder="AGGG (dsDNA) DNA 1: GCTATCTAGTGCTCAGTACGCACTGAGGGAGGAAACTTCTGGCAGGACCAGGTCATGAGATCGGAAGAGCACACGTCTGAACTCCAGTCA DNA 2: TGACTGGAGTTCAGACGTGTGCTCTTCCGATCTCATGACCTGGTCCTGCCAGAAGTTTCCTCCCTCAGTGCGTACTGAGCACTAGATAGC RNA: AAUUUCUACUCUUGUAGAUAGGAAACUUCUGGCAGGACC" result="-5.86 lnKA"
binder="GATT (dsDNA) DNA 1: GCTATCTAGTGCTCAGTACGCACTGGATTAGGAAACTTCTGGCAGGACCAGGTCATGAGATCGGAAGAGCACACGTCTGAACTCCAGTCA DNA 2: TGACTGGAGTTCAGACGTGTGCTCTTCCGATCTCATGACCTGGTCCTGCCAGAAGTTTCCTAATCCAGTGCGTACTGAGCACTAGATAGC RNA: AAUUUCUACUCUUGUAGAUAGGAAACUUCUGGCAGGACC" result="-5.56 lnKA"

The reported value for ATCC (dsDNA) DNA 1: GCTATCTAGTGCTCAGTACGCACTGATCCAGGAAACTTCTGGCAGGACCAGGTCATGAGATCGGAAGAGCACACGTCTGAACTCCAGTCA DNA 2: TGACTGGAGTTCAGACGTGTGCTCTTCCGATCTCATGACCTGGTCCTGCCAGAAGTTTCCTGGATCAGTGCGTACTGAGCACTAGATAGC RNA: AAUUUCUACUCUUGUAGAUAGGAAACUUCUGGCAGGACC in terms of binding signal is -0.902 lnKA
